Ref: patent US20160145257A1

# Test target: hTRPC5 (Homo sapiens, UniProt Q9UL62)
# Construct: expressed in transfected cells; host or cells: HEK293 TREx cells with inducible TRPC5 expression
# Sequence (Q9UL62 whole entry): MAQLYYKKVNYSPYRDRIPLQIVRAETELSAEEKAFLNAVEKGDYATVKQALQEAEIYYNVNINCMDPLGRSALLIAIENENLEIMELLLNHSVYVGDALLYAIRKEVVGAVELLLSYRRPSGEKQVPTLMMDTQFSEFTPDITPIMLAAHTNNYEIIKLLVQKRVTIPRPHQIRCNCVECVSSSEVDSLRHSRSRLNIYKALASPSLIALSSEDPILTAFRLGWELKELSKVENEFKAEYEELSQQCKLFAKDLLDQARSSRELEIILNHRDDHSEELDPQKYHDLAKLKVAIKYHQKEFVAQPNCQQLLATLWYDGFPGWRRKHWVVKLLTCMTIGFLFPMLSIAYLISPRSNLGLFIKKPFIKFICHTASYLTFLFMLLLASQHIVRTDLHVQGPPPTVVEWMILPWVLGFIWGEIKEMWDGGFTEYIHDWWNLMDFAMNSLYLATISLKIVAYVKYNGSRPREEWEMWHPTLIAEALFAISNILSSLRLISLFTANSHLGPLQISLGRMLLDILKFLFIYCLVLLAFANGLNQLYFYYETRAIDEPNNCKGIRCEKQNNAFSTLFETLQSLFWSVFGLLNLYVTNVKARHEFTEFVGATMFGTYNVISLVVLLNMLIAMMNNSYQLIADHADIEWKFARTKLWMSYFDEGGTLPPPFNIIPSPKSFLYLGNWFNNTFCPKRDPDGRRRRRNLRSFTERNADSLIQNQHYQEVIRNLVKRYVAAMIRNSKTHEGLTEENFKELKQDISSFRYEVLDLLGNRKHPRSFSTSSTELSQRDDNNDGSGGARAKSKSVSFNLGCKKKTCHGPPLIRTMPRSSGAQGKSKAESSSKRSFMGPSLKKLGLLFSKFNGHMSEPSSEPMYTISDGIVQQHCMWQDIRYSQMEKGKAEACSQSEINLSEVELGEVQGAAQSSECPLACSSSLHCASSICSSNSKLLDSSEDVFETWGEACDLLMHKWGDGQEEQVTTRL
# Test protocol: Whole-cell patch clamp, block of LaCl3-activated TRPC5 inward current
# Assay type: cell-based
# Conditions used: TRPC5-expressing HEK293 TREx cells, 80 μM LaCl3, inward current, IC50 estimated from 5 μM and 500 nM, read-out: hTRPC5 Patch La3+ Inwd (nM) (All Batches)
Quick reference: IC50 of the listed items.

Lookup: GET /values?readout=IC50&item= "COCCCSc1nc2c(c(=O)n(C)c(=O)n2C)n1Cc1cccc(Br)c1"
Found: 100 to 500 nM

Lookup: GET /values?readout=IC50&item= "CCCOCCc1nc2c(c(=O)n(C)c(=O)n2C)n1Cc1ccc(Cl)cc1"
Found: 500 to 1000 nM

Lookup: GET /values?readout=IC50&item= "CCCN(CCc1nc2c(c(=O)n(C)c(=O)n2C)n1Cc1cccc(Br)c1)C(C)=O"
Found: 2000 to 10000 nM

Lookup: GET /values?readout=IC50&item= "Cn1c(=O)c2c(nc(CN3CCOCC3)n2Cc2cccc(Br)c2)n(C)c1=O"
Found: 2000 to 10000 nM

Lookup: GET /values?readout=IC50&item= "Cn1c(=O)c2c(nc(Cc3cccc(CO)c3)n2Cc2cccc(Br)c2)n(C)c1=O"
Found: 2000 to 10000 nM

Lookup: GET /values?readout=IC50&item= "Cn1c(=O)c2c(nc(Oc3cccc(C(F)(F)F)c3)n2Cc2cccc3ccccc23)n(C)c1=O"
Found: 100 to 500 nM
